This collection of values is drawn from ChEMBL document CHEMBL1255423.

Here, each record is paired with measured IC50 data.
tested on: Toxoplasma gondii; assay: Antimicrobial activity against Toxoplasma gondii RH infected in HFF cells by plaque assay; format: functional, organism-based
Please respond with the number in nM and leave the unit unwritten.

Answered examples (2):
{"compound": "COP(=S)(NC(C)C)Oc1ccc(C)cc1[N+](=O)[O-] (centres undefined) [AMIPROPHOS METHYL]", "readout": "IC50", "recorded-value": 1000}
{"compound": "CCCN(CCC)c1c([N+](=O)[O-])cc(S(=O)(=O)Nc2ccccc2)cc1[N+](=O)[O-]", "readout": "IC50", "recorded-value": 6700}

Entry CCN(CC)c1c([N+](=O)[O-])cc(C(F)(F)F)c(N)c1[N+](=O)[O-] [DINITRAMINE] ; assay system Toxoplasma gondii; IC50 recorded at 45

Record CCCN(CCC)c1c([N+](=O)[O-])cc(S(C)(=O)=O)cc1[N+](=O)[O-] [NITRALIN] / Toxoplasma gondii, IC50 recorded as 500
